Target: hT1R2/hT1R3 sweet receptor expressed in an HEK293 cell line (Homo sapiens, UniProt Q7RTX0+Q8TE23)
Construct: expressed in transfected cells; host or cells: HEK293 derivative, clone S-9
Sequence (Q8TE23 20-839): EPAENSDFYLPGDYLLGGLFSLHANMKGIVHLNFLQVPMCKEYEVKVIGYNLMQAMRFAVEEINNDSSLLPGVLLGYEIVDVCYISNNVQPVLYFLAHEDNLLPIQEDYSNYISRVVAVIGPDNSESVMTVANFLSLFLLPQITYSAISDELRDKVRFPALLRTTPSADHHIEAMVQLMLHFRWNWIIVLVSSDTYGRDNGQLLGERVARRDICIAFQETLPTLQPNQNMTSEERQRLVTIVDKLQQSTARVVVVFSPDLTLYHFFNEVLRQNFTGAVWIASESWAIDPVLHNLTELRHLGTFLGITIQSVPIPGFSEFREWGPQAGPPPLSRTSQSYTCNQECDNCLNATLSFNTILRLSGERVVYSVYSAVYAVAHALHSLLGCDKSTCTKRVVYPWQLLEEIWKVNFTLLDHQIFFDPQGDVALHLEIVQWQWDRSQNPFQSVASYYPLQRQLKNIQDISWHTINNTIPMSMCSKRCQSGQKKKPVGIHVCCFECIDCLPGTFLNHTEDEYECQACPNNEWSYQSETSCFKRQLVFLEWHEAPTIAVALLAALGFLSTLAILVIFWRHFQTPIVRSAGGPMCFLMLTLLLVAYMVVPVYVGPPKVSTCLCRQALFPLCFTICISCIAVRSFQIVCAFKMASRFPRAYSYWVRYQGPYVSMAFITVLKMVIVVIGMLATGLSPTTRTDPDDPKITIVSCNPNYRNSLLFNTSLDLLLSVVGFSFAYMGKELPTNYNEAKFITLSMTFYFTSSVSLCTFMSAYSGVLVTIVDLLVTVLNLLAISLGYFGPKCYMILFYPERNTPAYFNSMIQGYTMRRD
Sequence (Q7RTX0 21-852): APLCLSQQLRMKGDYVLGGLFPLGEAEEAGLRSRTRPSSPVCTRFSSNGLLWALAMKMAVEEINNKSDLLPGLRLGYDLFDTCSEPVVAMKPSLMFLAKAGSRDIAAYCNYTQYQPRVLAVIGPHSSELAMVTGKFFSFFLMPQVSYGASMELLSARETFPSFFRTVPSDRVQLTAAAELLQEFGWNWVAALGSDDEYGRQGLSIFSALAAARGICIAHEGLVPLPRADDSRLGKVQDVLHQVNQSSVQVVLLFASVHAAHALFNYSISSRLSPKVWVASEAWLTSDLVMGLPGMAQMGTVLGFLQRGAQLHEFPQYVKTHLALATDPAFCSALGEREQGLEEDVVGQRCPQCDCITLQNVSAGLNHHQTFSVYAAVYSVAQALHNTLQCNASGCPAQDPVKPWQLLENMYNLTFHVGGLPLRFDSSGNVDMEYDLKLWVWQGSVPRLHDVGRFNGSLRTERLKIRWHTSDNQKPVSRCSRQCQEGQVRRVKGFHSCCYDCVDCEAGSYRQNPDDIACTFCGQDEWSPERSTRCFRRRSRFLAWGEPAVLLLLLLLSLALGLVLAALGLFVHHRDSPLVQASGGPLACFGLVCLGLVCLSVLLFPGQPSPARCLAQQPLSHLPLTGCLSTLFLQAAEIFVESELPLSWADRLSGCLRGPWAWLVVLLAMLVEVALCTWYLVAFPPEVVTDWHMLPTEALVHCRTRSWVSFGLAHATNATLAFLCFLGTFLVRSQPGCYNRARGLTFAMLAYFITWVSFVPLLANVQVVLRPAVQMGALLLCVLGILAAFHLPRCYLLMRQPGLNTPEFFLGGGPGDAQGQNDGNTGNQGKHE
Assay: In vitro hT1R2/hT1R3 sweet taste receptor activation assay (FLIPR, dose response)
Type: cell-based
Settings: read-out: Sweet EC50
Reported log10(EC50) is given for each of the following molecules.
Remember, log10 of EC50, in µM.

Observe how each entry below is paired with its result.
chemical_structure=CC(C)Nc1ccc(NC(=S)NCc2ccc[nH]2)cc1 recorded_value=-0.20
chemical_structure=C=COc1ccc(NC(=S)NCc2ccc[nH]2)cc1 recorded_value=-0.74
chemical_structure=COc1ccc(Cl)cc1S(=O)(=O)NCc1ccco1 recorded_value=0.90
chemical_structure=CC(=O)c1ccc(NC(=S)NCc2ccoc2)cc1 recorded_value=0.87

Okay, next one:
Lookup: // lookup log10(EC50) for CCSc1ccc(NC(=S)NCc2ccc[nH]2)cc1
Found: -0.68
